- study_system: Rho-associated protein kinase 2 (Homo sapiens) (UniProt O75116)
- Sequence (O75116 whole entry, looked up): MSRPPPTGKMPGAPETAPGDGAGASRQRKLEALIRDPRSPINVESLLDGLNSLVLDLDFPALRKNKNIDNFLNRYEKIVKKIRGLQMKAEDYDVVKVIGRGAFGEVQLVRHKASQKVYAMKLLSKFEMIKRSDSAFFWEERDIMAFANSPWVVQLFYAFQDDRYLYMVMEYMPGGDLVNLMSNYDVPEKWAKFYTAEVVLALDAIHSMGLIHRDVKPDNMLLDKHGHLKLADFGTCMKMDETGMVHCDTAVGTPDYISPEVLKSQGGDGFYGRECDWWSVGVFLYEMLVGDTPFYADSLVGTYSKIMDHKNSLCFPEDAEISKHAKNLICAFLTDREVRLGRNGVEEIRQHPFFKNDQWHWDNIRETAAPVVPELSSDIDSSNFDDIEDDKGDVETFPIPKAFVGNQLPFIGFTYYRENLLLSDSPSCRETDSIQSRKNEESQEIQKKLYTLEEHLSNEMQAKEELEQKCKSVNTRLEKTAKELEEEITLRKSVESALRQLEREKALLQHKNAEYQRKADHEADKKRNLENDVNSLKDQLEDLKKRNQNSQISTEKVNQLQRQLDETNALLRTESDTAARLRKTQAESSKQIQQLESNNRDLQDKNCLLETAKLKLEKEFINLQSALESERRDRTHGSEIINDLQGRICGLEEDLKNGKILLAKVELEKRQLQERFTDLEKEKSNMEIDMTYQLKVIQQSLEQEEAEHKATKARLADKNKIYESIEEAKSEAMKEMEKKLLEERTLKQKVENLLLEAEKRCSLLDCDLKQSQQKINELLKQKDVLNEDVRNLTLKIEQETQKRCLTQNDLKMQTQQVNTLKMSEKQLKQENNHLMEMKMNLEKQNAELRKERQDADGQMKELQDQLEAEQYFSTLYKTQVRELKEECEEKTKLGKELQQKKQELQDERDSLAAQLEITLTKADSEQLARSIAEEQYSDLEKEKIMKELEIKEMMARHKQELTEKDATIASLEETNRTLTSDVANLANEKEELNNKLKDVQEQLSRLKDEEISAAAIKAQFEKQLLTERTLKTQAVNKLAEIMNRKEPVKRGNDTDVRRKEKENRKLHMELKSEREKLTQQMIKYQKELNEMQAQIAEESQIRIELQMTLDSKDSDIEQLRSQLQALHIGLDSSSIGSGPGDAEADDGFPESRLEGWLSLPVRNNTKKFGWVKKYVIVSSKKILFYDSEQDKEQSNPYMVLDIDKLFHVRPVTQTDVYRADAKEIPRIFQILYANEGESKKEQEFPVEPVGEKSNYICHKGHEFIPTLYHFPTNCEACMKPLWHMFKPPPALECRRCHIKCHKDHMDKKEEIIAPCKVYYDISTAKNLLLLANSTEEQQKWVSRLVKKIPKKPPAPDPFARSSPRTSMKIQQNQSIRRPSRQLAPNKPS
- protocol_notes: Inhibition of ROCK2 (unknown origin) at 10 uM relative to control
Assign yes (1) whenever inhibition does not fall below 90%; assign no (0) whenever it does.

Given the entry CC(C)Nc1c(C(N)=O)cnc2cc(-c3ccc(S(C)(=O)=O)cc3)ccc12 , answer whether its inhibition meets or surpasses 90%. no (0)

Given the entry CS(=O)(=O)c1ccc(-c2ccc3c(NC4CCC4)c(C(N)=O)nnc3c2)cc1 , answer whether its inhibition meets or surpasses 90%. no (0)

Given the entry CC(C)Nc1c(C(N)=O)nnc2cc(-c3ccncc3)ccc12 , answer whether its inhibition meets or surpasses 90%. yes (1)

Given the entry C[C@@H](Nc1c(C(N)=O)nnc2cc(-c3ccc(S(C)(=O)=O)cc3)ccc12)C1CC1 , answer whether its inhibition meets or surpasses 90%. no (0)

Given the entry CC(C)Nc1c(C(N)=O)nnc2cc(N3CCOCC3)ccc12 , answer whether its inhibition meets or surpasses 90%. no (0)

Given the entry CC(C)Nc1c(C(N)=O)nnc2ccc(-c3cn[nH]c3)cc12 , answer whether its inhibition meets or surpasses 90%. yes (1)

----------
- study_system: RAF proto-oncogene serine/threonine-protein kinase (Homo sapiens)
- protocol_notes: Inhibition of RAF1 (unknown origin) at 10 uM relative to control
assay_metric: inhibition (%)
Note: unit % is implicit; provide only the numeric part.

I'd like to know its inhibition. The compound in question is CC(C)Nc1c(C(N)=O)nnc2ccc(-c3cn[nH]c3)cc12 88

I'd like to know its inhibition. The compound in question is C[C@@H](Nc1c(C(N)=O)nnc2cc(-c3ccc(S(C)(=O)=O)cc3)ccc12)C1CC1 21

I'd like to know its inhibition. The compound in question is CC(C)Nc1c(C(N)=O)cnc2cc(-c3ccc(S(C)(=O)=O)cc3)ccc12 17

I'd like to know its inhibition. The compound in question is CC(C)Nc1c(C(N)=O)nnc2cc(-c3ccncc3)ccc12 61

I'd like to know its inhibition. The compound in question is CC(C)Nc1c(C(N)=O)nnc2ccc(-c3ccncc3)cc12 93

I'd like to know its inhibition. The compound in question is CC(C)Nc1c(C(N)=O)nnc2cc(N3CCOCC3)ccc12 27

I'd like to know its inhibition. The compound in question is CS(=O)(=O)c1ccc(-c2ccc3c(NC4CCC4)c(C(N)=O)nnc3c2)cc1 38

----------
- study_system: Leucine-rich repeat serine/threonine-protein kinase 2 (Homo sapiens, UniProt Q5S007, G2019S)
- Sequence (Q5S007 whole entry G2019S, the tested form may be a part): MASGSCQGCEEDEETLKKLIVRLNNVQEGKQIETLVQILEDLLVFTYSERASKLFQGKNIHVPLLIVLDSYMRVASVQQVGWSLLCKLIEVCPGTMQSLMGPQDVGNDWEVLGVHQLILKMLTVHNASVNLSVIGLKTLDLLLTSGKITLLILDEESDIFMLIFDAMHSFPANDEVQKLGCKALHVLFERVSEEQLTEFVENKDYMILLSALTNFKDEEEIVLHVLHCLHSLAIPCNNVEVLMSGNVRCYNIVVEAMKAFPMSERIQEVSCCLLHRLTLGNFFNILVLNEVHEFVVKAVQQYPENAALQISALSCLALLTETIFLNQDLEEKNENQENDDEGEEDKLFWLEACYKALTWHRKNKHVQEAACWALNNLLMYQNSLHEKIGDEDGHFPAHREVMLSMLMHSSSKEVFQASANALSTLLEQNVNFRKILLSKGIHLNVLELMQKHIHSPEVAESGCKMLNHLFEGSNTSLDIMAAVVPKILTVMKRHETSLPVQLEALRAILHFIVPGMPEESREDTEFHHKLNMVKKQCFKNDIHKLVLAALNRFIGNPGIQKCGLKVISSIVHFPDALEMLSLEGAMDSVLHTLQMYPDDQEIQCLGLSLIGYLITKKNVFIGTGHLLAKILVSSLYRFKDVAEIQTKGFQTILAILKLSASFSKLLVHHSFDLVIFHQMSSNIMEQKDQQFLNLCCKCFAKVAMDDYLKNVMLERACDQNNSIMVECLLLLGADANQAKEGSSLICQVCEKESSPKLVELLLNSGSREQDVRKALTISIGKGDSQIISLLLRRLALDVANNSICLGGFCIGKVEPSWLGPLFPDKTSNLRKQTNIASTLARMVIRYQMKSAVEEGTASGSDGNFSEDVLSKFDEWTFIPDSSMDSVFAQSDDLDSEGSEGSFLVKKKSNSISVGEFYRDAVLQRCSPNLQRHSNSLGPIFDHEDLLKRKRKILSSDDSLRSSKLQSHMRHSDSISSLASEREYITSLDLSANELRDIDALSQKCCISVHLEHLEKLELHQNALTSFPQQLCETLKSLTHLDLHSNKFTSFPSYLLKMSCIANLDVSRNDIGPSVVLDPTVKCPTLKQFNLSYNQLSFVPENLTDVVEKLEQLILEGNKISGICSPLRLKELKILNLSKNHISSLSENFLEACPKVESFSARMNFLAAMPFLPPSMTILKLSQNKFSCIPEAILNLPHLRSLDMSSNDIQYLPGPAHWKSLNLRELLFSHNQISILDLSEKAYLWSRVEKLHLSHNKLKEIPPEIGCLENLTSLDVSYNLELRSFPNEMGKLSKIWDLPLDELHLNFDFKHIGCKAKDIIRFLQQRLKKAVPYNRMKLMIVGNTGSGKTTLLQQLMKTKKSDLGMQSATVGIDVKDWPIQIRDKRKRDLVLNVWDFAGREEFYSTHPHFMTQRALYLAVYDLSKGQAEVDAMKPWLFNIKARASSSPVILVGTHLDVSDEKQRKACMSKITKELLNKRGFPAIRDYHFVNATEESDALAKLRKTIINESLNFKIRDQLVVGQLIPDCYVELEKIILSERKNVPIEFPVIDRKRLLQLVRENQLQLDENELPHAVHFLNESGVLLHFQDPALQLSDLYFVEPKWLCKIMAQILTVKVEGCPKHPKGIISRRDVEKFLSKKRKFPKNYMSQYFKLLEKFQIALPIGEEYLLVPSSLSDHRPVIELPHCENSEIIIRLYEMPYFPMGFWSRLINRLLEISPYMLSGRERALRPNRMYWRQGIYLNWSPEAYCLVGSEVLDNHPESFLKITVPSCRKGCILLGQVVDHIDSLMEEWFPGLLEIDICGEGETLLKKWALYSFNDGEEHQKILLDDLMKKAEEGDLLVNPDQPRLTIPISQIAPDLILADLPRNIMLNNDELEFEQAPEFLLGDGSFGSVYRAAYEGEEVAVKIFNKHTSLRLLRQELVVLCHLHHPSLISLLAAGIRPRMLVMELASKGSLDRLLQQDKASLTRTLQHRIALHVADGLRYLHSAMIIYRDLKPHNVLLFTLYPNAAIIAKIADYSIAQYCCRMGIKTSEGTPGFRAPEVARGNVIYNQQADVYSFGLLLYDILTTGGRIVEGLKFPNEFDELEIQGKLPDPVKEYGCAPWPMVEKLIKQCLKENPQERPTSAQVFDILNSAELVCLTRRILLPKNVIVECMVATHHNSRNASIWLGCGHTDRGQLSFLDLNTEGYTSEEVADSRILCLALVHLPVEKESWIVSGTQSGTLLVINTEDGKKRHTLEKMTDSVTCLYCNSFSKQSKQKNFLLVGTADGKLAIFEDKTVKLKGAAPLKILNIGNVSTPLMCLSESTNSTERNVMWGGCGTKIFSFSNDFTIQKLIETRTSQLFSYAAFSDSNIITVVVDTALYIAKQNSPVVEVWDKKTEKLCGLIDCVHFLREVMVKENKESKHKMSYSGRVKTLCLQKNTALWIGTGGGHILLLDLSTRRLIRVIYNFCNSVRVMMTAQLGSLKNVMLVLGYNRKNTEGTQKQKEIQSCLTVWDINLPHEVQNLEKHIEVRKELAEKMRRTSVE
- protocol_notes: Inhibition of LRRK2 G2019S mutant (unknown origin) transfected in HEK293 cells assessed as inhibition of S935 phosphorylation
assay_metric: pEC50
Lab note — pEC50 values are minus log10 of concentrations in M.

I'd like to know its pEC50. The compound in question is CC[C@@H](C)Nc1c(C(N)=O)nnc2cc(-c3ccc(S(C)(=O)=O)cc3)ccc12 7.14

I'd like to know its pEC50. The compound in question is C[C@@H](Nc1c(C(N)=O)nnc2cc(-c3ccc(S(C)(=O)=O)cc3)ccc12)C1CC1 7.15

I'd like to know its pEC50. The compound in question is CC(C)Nc1c(C(N)=O)nnc2cc(-c3ccc(S(C)(=O)=O)cc3)ccc12 6.66

I'd like to know its pEC50. The compound in question is CC(C)Nc1c(C(N)=O)nnc2cc(-c3cnsc3)ccc12 6.54

I'd like to know its pEC50. The compound in question is C[C@@H](Nc1c(C(N)=O)nnc2cc(-c3ccncc3)ccc12)C1CC1 7.21

I'd like to know its pEC50. The compound in question is CC(C)Nc1c(C(N)=O)nnc2ccc(-c3cn[nH]c3)cc12 6.96

----------
- study_system: Leucine-rich repeat serine/threonine-protein kinase 2 (Homo sapiens, UniProt Q5S007, G2019S)
- protocol_notes: Inhibition of GST-tagged LRRK2 G2019S mutant (970 to 2527 amino acid residues) (unknown origin) assessed as inhibition of biotinylated-LRRKtide phosphorylation by HTRF assay in presence of ATP
assay_metric: pIC50
Lab note — pIC50 values are minus log10 of concentrations in M.

I'd like to know its pIC50. The compound in question is NC(=O)c1nnc2cc(-c3ccncc3)ccc2c1NCCO 6.58

I'd like to know its pIC50. The compound in question is CS(=O)(=O)c1ccc(-c2ccc3c(NCC4CC4)c(C(N)=O)nnc3c2)cc1 7.57

I'd like to know its pIC50. The compound in question is CS(=O)(=O)c1ccc(-c2ccc3c(NC4CCC4)c(C(N)=O)nnc3c2)cc1 7.72

I'd like to know its pIC50. The compound in question is CC(C)Nc1c(C(N)=O)nnc2cc(-c3cnn(C)c3)ccc12 7.92

----------
- study_system: Mitogen-activated protein kinase kinase kinase 7 (Homo sapiens) (UniProt O43318)
- Sequence (O43318 whole entry): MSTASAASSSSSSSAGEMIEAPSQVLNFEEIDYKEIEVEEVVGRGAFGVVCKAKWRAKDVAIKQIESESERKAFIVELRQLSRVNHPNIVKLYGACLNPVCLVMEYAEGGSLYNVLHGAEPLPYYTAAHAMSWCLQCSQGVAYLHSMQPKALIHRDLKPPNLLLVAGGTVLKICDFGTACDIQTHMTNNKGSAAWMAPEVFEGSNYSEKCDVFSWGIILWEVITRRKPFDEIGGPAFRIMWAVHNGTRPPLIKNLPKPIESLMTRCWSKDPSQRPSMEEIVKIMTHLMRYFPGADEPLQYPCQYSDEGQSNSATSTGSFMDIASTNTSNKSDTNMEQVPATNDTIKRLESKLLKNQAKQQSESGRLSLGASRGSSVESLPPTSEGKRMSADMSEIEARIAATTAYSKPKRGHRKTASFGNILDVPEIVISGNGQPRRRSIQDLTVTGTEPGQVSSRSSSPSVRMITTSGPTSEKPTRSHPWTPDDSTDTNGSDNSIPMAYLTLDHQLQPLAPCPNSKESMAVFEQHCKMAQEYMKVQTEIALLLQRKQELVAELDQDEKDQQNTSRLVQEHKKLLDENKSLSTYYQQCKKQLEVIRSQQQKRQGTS
- protocol_notes: Inhibition of MAP3K7 (unknown origin) at 10 uM relative to control
Assign Yes whenever inhibition does not fall below 80%; assign No whenever it does.

Given the entry CC(C)Nc1c(C(N)=O)nnc2ccc(-c3cn[nH]c3)cc12 , answer whether its inhibition meets or surpasses 80%. Yes

Given the entry CC(C)Nc1c(C(N)=O)nnc2cc(N3CCOCC3)ccc12 , answer whether its inhibition meets or surpasses 80%. No

Given the entry CC(C)Nc1c(C(N)=O)nnc2ccc(-c3ccncc3)cc12 , answer whether its inhibition meets or surpasses 80%. Yes

Given the entry CC(C)Nc1c(C(N)=O)cnc2cc(-c3ccc(S(C)(=O)=O)cc3)ccc12 , answer whether its inhibition meets or surpasses 80%. Yes

Given the entry CS(=O)(=O)c1ccc(-c2ccc3c(NC4CCC4)c(C(N)=O)nnc3c2)cc1 , answer whether its inhibition meets or surpasses 80%. No

Given the entry CC(C)Nc1c(C(N)=O)nnc2cc(-c3ccncc3)ccc12 , answer whether its inhibition meets or surpasses 80%. Yes

Given the entry C[C@@H](Nc1c(C(N)=O)nnc2cc(-c3ccc(S(C)(=O)=O)cc3)ccc12)C1CC1 , answer whether its inhibition meets or surpasses 80%. No

----------
- study_system: Serine/threonine-protein kinase PLK2 (Homo sapiens)
- protocol_notes: Inhibition of PLK2 (unknown origin) at 10 uM relative to control
Exercise: state measured inhibition for each of the molecules provided.
Note: unit % is implicit; provide only the numeric part.

I'd like to know its inhibition. The molecule in question is C[C@@H](Nc1c(C(N)=O)nnc2cc(-c3ccc(S(C)(=O)=O)cc3)ccc12)C1CC1 17

I'd like to know its inhibition. The molecule in question is CC(C)Nc1c(C(N)=O)nnc2cc(N3CCOCC3)ccc12 6

I'd like to know its inhibition. The molecule in question is CC(C)Nc1c(C(N)=O)cnc2cc(-c3ccc(S(C)(=O)=O)cc3)ccc12 7

I'd like to know its inhibition. The molecule in question is CS(=O)(=O)c1ccc(-c2ccc3c(NC4CCC4)c(C(N)=O)nnc3c2)cc1 11

I'd like to know its inhibition. The molecule in question is CC(C)Nc1c(C(N)=O)nnc2ccc(-c3cn[nH]c3)cc12 80

I'd like to know its inhibition. The molecule in question is CC(C)Nc1c(C(N)=O)nnc2cc(-c3ccncc3)ccc12 30

I'd like to know its inhibition. The molecule in question is CC(C)Nc1c(C(N)=O)nnc2ccc(-c3ccncc3)cc12 51

----------
- study_system: Serine/threonine-protein kinase PAK 4 (Homo sapiens)
- protocol_notes: Inhibition of PAK4 (unknown origin) at 10 uM relative to control
assay_metric: inhibition (%)
Note: unit % is implicit; provide only the numeric part.

I'd like to know its inhibition. The compound in question is C[C@@H](Nc1c(C(N)=O)nnc2cc(-c3ccc(S(C)(=O)=O)cc3)ccc12)C1CC1 33

I'd like to know its inhibition. The compound in question is CC(C)Nc1c(C(N)=O)nnc2cc(-c3ccncc3)ccc12 82

I'd like to know its inhibition. The compound in question is CC(C)Nc1c(C(N)=O)cnc2cc(-c3ccc(S(C)(=O)=O)cc3)ccc12 64

I'd like to know its inhibition. The compound in question is CS(=O)(=O)c1ccc(-c2ccc3c(NC4CCC4)c(C(N)=O)nnc3c2)cc1 43

I'd like to know its inhibition. The compound in question is CC(C)Nc1c(C(N)=O)nnc2cc(N3CCOCC3)ccc12 59

I'd like to know its inhibition. The compound in question is CC(C)Nc1c(C(N)=O)nnc2ccc(-c3cn[nH]c3)cc12 81

I'd like to know its inhibition. The compound in question is CC(C)Nc1c(C(N)=O)nnc2ccc(-c3ccncc3)cc12 58

----------
- study_system: Protein-tyrosine kinase 2-beta (Homo sapiens) (UniProt Q14289)
- protocol_notes: Inhibition of FAK2 (unknown origin) at 10 uM relative to control
Assign t whenever inhibition does not fall below 50%; assign f whenever it does.

Given the entry CC(C)Nc1c(C(N)=O)nnc2ccc(-c3ccncc3)cc12 , answer whether its inhibition meets or surpasses 50%. f

Given the entry CC(C)Nc1c(C(N)=O)cnc2cc(-c3ccc(S(C)(=O)=O)cc3)ccc12 , answer whether its inhibition meets or surpasses 50%. f

Given the entry CS(=O)(=O)c1ccc(-c2ccc3c(NC4CCC4)c(C(N)=O)nnc3c2)cc1 , answer whether its inhibition meets or surpasses 50%. f

Given the entry C[C@@H](Nc1c(C(N)=O)nnc2cc(-c3ccc(S(C)(=O)=O)cc3)ccc12)C1CC1 , answer whether its inhibition meets or surpasses 50%. f

Given the entry CC(C)Nc1c(C(N)=O)nnc2cc(N3CCOCC3)ccc12 , answer whether its inhibition meets or surpasses 50%. f

Given the entry CC(C)Nc1c(C(N)=O)nnc2ccc(-c3cn[nH]c3)cc12 , answer whether its inhibition meets or surpasses 50%. t

Given the entry CC(C)Nc1c(C(N)=O)nnc2cc(-c3ccncc3)ccc12 , answer whether its inhibition meets or surpasses 50%. t
